Attribute: highest concentration that did not cause significant increase of toxicity
test system: PCLS; assay: Cytotoxicity analysis - dose selection experiments (LDH, ATP, protein assay); details: male, C57BL/6, mouse
Quantity Kind: highest concentration that did not cause significant increase of toxicity (µM)

Molecule: CCCC(CCC)C(=O)O [VA, valproic acid]
Numeric Readout: 200
//
Molecule: CN(C)CCCN1c2ccccc2Sc2ccc(Cl)cc21 [CPZ, chlorpromazine]
Numeric Readout: 10
//
Molecule: NNC(=O)c1ccncc1 [ISONZ, isoniazid]
Numeric Readout: 1000
//
Molecule: CC(=O)Nc1ccc(O)cc1 [APAP, acetaminophen]
Numeric Readout: 1000

Data credit: patent EP2762573A1
